Each recorded value in this set is attributed to paper PMC8699473.

test.name: Long-term stability in spiked pooled human plasma
experimental.context: validation standard 2xLLOV
readout: Long-term stability, 1 month, -80°C Accuracy [%] (%)
State just the number; it will be interpreted in %.

[
  {
    "molecule": "CO[C@@H]1[C@H](N(C)C(=O)c2ccccc2)C[C@H]2O[C@]1(C)n1c3ccccc3c3c4c(c5c6ccccc6n2c5c31)C(=O)NC4",
    "reading": 106.8
  },
  {
    "molecule": "CNC(=O)c1ccccc1Sc1ccc2c(/C=C/c3ccccn3)n[nH]c2c1",
    "reading": 86.83
  },
  {
    "molecule": "O=C1CN2Cc3c(ccc(Cl)c3Cl)N=C2N1 [Anagrelide]",
    "reading": 105.6
  },
  {
    "molecule": "Nc1cccc2c1CN(C1CCC(=O)NC1=O)C2=O (stereo not drawn) [Lenalidomide]",
    "reading": 103.2
  },
  {
    "molecule": "Cc1[nH]c2ccccc2c1CCNCc1ccc(/C=C/C(=O)NO)cc1",
    "reading": 59.0
  }
]

If you can, please state the reported Long-term stability, 1 month, -80°C Accuracy [%] value of CN(C)C/C=C/C(=O)Nc1cc2c(Nc3ccc(F)c(Cl)c3)ncnc2cc1O[C@H]1CCOC1 .
90.7

What do you have for O=C1CCC(N2C(=O)c3ccccc3C2=O)C(=O)N1 (stereo not drawn) [Thalidomide] ?
74.9

What do you have for CCC1=C[C@@H]2CN(C1)Cc1c([nH]c3ccccc13)[C@@](C(=O)OC)(c1cc3c(cc1OC)N(C)[C@H]1[C@@](O)(C(=O)OC)[C@H](OC(C)=O)[C@]4(CC)C=CCN5CC[C@]31[C@@H]54)C2 ?
110.2

What do you have for C[C@]12CC[C@H](O)CC1=CC[C@@H]1[C@@H]2CC[C@]2(C)C(c3cccnc3)=CC[C@@H]12 ?
93.5
